# targetUnderTest: human keratin (human)
# assayProcedure: batch affinity chromatography, peptide on Toyopearl resin, human keratin in solution, Langmuir fit
Bridges are numbered along the chain shown (N, C = ends). Where no end group is shown, it is not given here.
experimentalEndpoint: Experimental Qmax (mg/mL resin)

binder: ACSLTVNWNCG (disulfide 2-10 (inferred)) [SP7-2 (…)]
scaleUnit: mg/mL resin
Experimental Qmax: 4.09
//
binder: ACSASTNHNCG (disulfide 2-10 (inferred)) [SP7-5 (…)]
scaleUnit: mg/mL resin
Experimental Qmax: 4.01
//
binder: ACTGSTQHQCG (disulfide 2-10 (inferred)) [SPACE™ peptide (…)]
scaleUnit: mg/mL resin
Experimental Qmax: 3.98
//
binder: ACLSVNHNACG (disulfide 2-10 (inferred)) [SP7-3 (…)]
scaleUnit: mg/mL resin
Experimental Qmax: 4.07
